Entry source: patent US20230226096A1

tested on: HEK293 cells; type: cell-based, human; details: luminescence from secreted Gluc in supernatant 24 hours after transfection of HEK293 cells; circular RNA encoding Gluc with the named IRES (UTR truncated to 675 nt)
READOUT NAME: Expression
Give your answer as a number; write no unit.

INPUT: Dear colleague, I am looking for the recorded Expression of the following molecule: Hepacivirus P (nucleic acid, listed as Hepacivirus sp.) DNA: ACATGGGGGGGGGCTGACAGTGAGTACACTGTGCCAAGCAGGTGCTACGCTATGCCTAGGTGCTGCTGTAGGCCAAGGACATGTCCCAGTCATCCCAGGTGAGGGGGGGGGTTCCCCTCACCGCTGCCACTGCCTGATAGGGTCCTGCCGGAGGGTCTCGGTGTCCGGCTGTAC
OUTPUT: 6.04E+05

INPUT: Can you check Zika Virus (nucleic acid, listed as Zika virus, chemistry not fully specified; the letters are possibly those of the target site) DNA: AGTTGTTGATCTGTGTGAGTCAGACTGCGACAGTTCGAGTCTGAAGCGAGAGCTAACAACAGTATCAACAGGTTTAATTTGGATTTGGAAACGAGAGTTTCTGGTC next?
OUTPUT: 8.61E+04

INPUT: Moving on to the next molecule: Hubei tombus-like virus 32 (nucleic acid) DNA: TTCGGGTTTACCCGCGTAAGCGGCCACACTGACTGGTTGTCGGTGTTGAATTTGTATACCAGATGAGGAGACGTTACCACCGTCTCGGCAGTGCTACGTCTGGGAAAGGACTGTGATAGTGGACAGTCCTACCGTCTTTAGATACATTGCGTTGTGTATAGCCCGGGAGGGATTAACTAATAGCAACGCAATGCACACGGCGGTTCGGATTTGCTTGACTGATGGAAAGACATCTAAGTTCTAATTGAACC
OUTPUT: 9.23E+04
